Test system: RPMI-8226 leukemia
Protocol Description: NCI-60 one-dose screen, 48 h (100 = growth as untreated, 0 = no growth, -100 = all killed)
Condition: 10 µM unless noted
Experimental: Growth inhibition of the RPMI-8226 human tumor cell line is measured as a screen for anti-cancer activity. Cells are grown in 96 well plates and exposed to the test compound for 48 hours. Compounds are tested at a single concentration, which is 10^-5 M for most compounds. The reported endpoint is percent growth (GI% or GIPRCNT), where numbers from 0 - 100% represent growth inhibition, and numbers from -100% - 0 represent cell death. For example, a value of 40 represents 60% growth inhibition. […]
The panel holds about 83,000 compounds, 20% with a hit somewhere; the sample as a whole holds those more often.
Assign growth to each entry below.
Give bare numbers, in %.

For each of the items listed, what is its growth?
1. Cc1ccc(Nc2nc(N)nc(N)c2N=O)cc1Cl
2. O=C(/C=C/C12c3ccccc3C(c3ccccc31)C1C(=O)NC(=O)C12)c1cccs1 (stereo not given)
3. CSc1nc(CC(C)C)c(C#N)c(=O)n1C
4. CN(Cc1ccccc1)c1nc(Cl)c(C2CC(c3ccc(Cl)cc3)=NN2c2cc(Cl)cc(Cl)c2)s1 (stereo not given)
5. COc1ccc(C(=O)C2OC3=C(C(=O)CC(C)(C)C3)C2c2cccc(Oc3ccccc3)c2)cc1 (stereo not given)
6. CCCn1cnc2c(c1=N)C(c1ccc(Cl)cc1)c1sc3c(F)cccc3c1O2 (stereo not given)
7. CC1=C(C(=O)c2ccccc2)C(c2ccc3c(c2)OCO3)NC(=S)N1 (stereo not given)
8. Cc1oc2ccc(O)c(CN3CCCCCC3)c2c1C(=O)Nc1ccc(C(F)(F)F)cc1

78.3
1.76
64.5
81.4
85.7
29.6
44
75.1

For each of the items listed, what is its growth?
1. O=C(Nc1ccc(Cl)cc1)C1=NCCCCN1
2. Cn1ccnc1C(=O)/C=C/c1ccc(CC(=O)Nc2cc(F)c(F)c(F)c2)cc1
3. CC(C)(C)c1ccc(C(=O)Nc2sc3c(c2C#N)CCC(=O)C3)cc1
4. CC(=O)c1c(/C=C/c2ccc(C)cc2)c2ccccc2[nH]c1=O
5. Clc1ccc2c(NCCCn3cnc4c(N5CCCC5)nc(Cl)nc43)ccnc2c1

[96.3, 4.01, -8.65, 91.5, 115]

----------
Assign growth to each entry below.
Test system: HT29 colon
Protocol Description: NCI-60 one-dose screen, 48 h (100 = growth as untreated, 0 = no growth, -100 = all killed)
Condition: 10 µM unless noted
About 83,000 compounds went through this panel and 20% of them were active in at least one assay; those are over-represented in the sample as a whole.
One number for each entry, in %.

Recorded results for 2 compounds are shown here.
Compound: C=C1C(=O)O[C@H]2[C@H]1CC/C(COC(=O)NCc1ccc(Cn3c(=O)sn(CCCC)c3=O)cc1)=C\CC[C@@]1(C)O[C@@H]21
Measurement Target: HT29 colon
growth (%): 0.335
--
Compound: CN(Cc1ccccc1)c1nc(Cl)c(C2CC(c3ccc(Cl)cc3)=NN2c2cc(Cl)cc(Cl)c2)s1 (stereo not given)
Measurement Target: HT29 colon
growth (%): 92.9

For each of the items listed, what is its growth?
1. Nc1cc(-c2ccc(Cl)cc2)nn1-c1nc(-c2ccc(Br)cc2)cs1
2. O=C1/C(=C/c2ccc(-c3ccc(Cl)cc3)o2)SC(=S)N1CCc1ccc(O)cc1
3. C=C(c1ccc(OC)c(/C=C/C(=O)c2cc(OC)c(OC)c(OC)c2)c1)c1cc(OC)c(OC)c(OC)c1
4. O=C(CN1C(=O)c2ccccc2S1(=O)=O)Nc1nc(-c2cc3ccccc3oc2=O)cs1
5. COC(=O)c1nc(-c2ccccc2)oc1S(=O)(=O)NCC(c1ccc(Cl)cc1)N1CCCCC1 (stereo not given)
6. Clc1ccc2c(NCCCn3cnc4c(N5CCCC5)nc(Cl)nc43)ccnc2c1
7. COc1ccc(CNc2ccc3nc(CCC4CCCCC4)[nH]c3c2)cc1
8. COc1cc(/C=N/NC(=O)c2ccc3nc(-c4ccc(Cl)cc4)[nH]c3c2)cc(OC)c1OC

1. 92
2. 25.2
3. 0.495
4. 103
5. 45.8
6. 100
7. 18.4
8. 39.9
